target: YeaW (carnitine monooxygenase oxygenase component) (Escherichia coli, UniProt P0ABR7); construct: N-terminal strep tag II fusion; with YeaX; assay: L-carnitine depletion assay with purified YeaX/YeaW; slow conversion to TMA also shown by GC-MS
Sequence (P76254 whole entry, the tested form may be a part): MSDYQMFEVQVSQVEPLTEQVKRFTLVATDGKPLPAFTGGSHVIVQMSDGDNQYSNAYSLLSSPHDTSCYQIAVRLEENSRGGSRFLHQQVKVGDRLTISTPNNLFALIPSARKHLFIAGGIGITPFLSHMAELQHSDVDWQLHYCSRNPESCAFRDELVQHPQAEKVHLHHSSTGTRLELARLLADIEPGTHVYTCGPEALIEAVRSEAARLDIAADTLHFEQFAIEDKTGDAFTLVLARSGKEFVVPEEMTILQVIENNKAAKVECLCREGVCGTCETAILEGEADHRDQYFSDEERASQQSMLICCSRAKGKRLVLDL
Sequence (P0ABR7 whole entry, the tested form may be a part): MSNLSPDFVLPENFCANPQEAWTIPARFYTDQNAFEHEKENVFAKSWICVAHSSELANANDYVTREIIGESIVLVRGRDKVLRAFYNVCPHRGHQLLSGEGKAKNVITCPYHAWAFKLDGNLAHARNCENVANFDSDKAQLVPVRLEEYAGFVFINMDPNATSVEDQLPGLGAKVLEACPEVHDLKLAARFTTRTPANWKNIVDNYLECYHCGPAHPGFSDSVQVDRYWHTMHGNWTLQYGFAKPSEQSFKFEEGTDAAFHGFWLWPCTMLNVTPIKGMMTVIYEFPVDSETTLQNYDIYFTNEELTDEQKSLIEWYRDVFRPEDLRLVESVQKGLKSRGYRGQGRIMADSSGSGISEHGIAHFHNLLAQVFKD
endpoint: IC50
Just the number plus its unit, please.

### Prompt For the molecule shown here, C[N+](C)(C)NCCC(=O)[O-] , give the reported IC50.
### Response 612 µM
